# TARGET OF ASSAY: Cytochrome P450 (CYP3A4) (Homo sapiens, UniProt P08684)
# Construct: human liver microsome (0.1 mg protein/mL); from tissue; host or cells: human liver microsomes
# Sequence (P08684 whole entry): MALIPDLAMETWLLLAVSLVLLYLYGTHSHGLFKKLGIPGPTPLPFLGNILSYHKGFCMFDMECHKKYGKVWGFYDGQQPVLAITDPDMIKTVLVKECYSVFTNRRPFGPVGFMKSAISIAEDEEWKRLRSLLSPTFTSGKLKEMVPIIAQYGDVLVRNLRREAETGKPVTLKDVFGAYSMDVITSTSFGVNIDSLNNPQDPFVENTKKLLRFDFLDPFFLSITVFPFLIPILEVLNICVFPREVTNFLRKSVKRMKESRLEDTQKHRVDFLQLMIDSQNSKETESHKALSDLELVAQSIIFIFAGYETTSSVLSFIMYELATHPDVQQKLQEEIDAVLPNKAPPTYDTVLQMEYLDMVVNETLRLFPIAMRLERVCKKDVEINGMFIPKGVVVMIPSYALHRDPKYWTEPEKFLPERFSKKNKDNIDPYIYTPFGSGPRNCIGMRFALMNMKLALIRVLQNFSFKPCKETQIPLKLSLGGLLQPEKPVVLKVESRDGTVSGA
# TEST DESCRIPTION: Measurement of cytochrome P450 (CYP3A4) enzyme inhibition activity in human liver microsome (inhibition tests I and II, midazolam substrate)
# Type: in vitro ADME
# TEST CONTEXT: inhibition test I: 5 μM test compound, 2 μM midazolam, human liver microsome, 37° C. 20 minutes, no preincubation
ENDPOINT LABEL: I (%) Remaining Rate I

CSc1ccccc1CNc1ncc(C#N)c(NC[C@]23CC4C[C@H](C2)C(NC[C@H]2CC[C@H](CO)CC2)[C@@H](C4)C3)n1 (stereo partly drawn)	80
CC1(N)CCC(N[C@@H]2[C@@H]3CC4C[C@H]2C[C@@](CNc2nc(NCc5ccccc5Cl)ncc2C#N)(C4)C3)CC1 (relative stereo)	85
CN([C@H]1CC[C@H](O)CC1)[C@@H]1[C@@H]2CC3C[C@H]1C[C@@](CNc1nc(NCc4ccccc4OC(F)(F)F)ncc1C#N)(C3)C2	75
COc1ncccc1CNc1ncc(C#N)c(NC[C@]23CC4C[C@H](C2)[C@@H](NC2CCC(O)CC2)[C@@H](C4)C3)n1 (relative stereo)	85
CNC1CCC(N[C@@H]2[C@@H]3CC4C[C@H]2C[C@@](CNc2nc(NCc5ccccc5Cl)ncc2C#N)(C4)C3)CC1 (stereo partly drawn) [Example 315]	85
N#Cc1cnc(NCc2ccccc2Cl)nc1NC[C@]12CC3C[C@H](C1)[C@@H](N[C@H]1CC[C@@H](NC4CCOCC4)CC1)[C@@H](C3)C2 (relative stereo)	81
